# EXPERIMENT_SUMMARY: Solubility of Form A in selected aqueous and organic solvents (HPLC)
# Type: physicochemical
# CONDITION: tetrahydrofuran, organic solvent or mixture, thermodynamic from solid; read-out: Solubility (mg/mL) (room temperature)

COMPOUND | OUTPUT_UNIT | solubility at 24 h
CCN1C(=O)CNc2ncc(-c3ccc(-c4nnc[nH]4)nc3C)nc21 [Form A] | mg/mL | 5.5

====

# EXPERIMENT_SUMMARY: Solubility of Form A in selected aqueous and organic solvents (HPLC)
# Type: physicochemical
# CONDITION: 0.1N HCl, simulated gastric fluid, thermodynamic from solid; read-out: Solubility (mg/mL) (room temperature)

COMPOUND | solubility at 24 h [mg/mL]
CCN1C(=O)CNc2ncc(-c3ccc(-c4nnc[nH]4)nc3C)nc21 [Form A] | 7.1

====

# EXPERIMENT_SUMMARY: Solubility of Form A in selected aqueous and organic solvents (HPLC)
# Type: physicochemical
# CONDITION: acetonitrile, organic solvent or mixture, thermodynamic from solid; read-out: Solubility (mg/mL) (room temperature)
REPORTED_ENDPOINT: solubility at 24 h

MOLECULE | READING
CCN1C(=O)CNc2ncc(-c3ccc(-c4nnc[nH]4)nc3C)nc21 [Form A] | 0.14 mg/mL

====

# EXPERIMENT_SUMMARY: Solubility of Form A in selected aqueous and organic solvents (HPLC)
# Format: physicochemical
# CONDITION: aqueous buffer, thermodynamic from solid; Phosphate buffer pH 6.8; read-out: Solubility (mg/mL) (room temperature)

COMPOUND | OUTPUT_UNIT | solubility at 24 h
CCN1C(=O)CNc2ncc(-c3ccc(-c4nnc[nH]4)nc3C)nc21 [Form A] | mg/mL | 0.05

====

# EXPERIMENT_SUMMARY: Solubility of Form A in selected aqueous and organic solvents (HPLC)
# Format: physicochemical
# CONDITION: organic solvent or mixture, thermodynamic from solid; Dimethyl Sulfoxide; estimated from visual observation of complete dissolution; read-out: Solubility (mg/mL) (room temperature)

COMPOUND | solubility
CCN1C(=O)CNc2ncc(-c3ccc(-c4nnc[nH]4)nc3C)nc21 [Form A] | > 50 mg/mL

====

# EXPERIMENT_SUMMARY: Solubility of Form A in selected aqueous and organic solvents (HPLC)
# Format: physicochemical
# CONDITION: thermodynamic from solid; Water, room temperature, 24 hours; read-out: Solubility (mg/mL) (room temperature)
REPORTED_ENDPOINT: solubility at 24 h (mg/mL)

COMPOUND | REPORTED_ENDPOINT | OUTPUT_UNIT | READING
CCN1C(=O)CNc2ncc(-c3ccc(-c4nnc[nH]4)nc3C)nc21 [Form A] | solubility at 24 h | mg/mL | 0.08

====

# EXPERIMENT_SUMMARY: Solubility of Form A in selected aqueous and organic solvents (HPLC)
# Format: physicochemical
# CONDITION: ethanol, organic solvent or mixture, thermodynamic from solid; read-out: Solubility (mg/mL) (room temperature)

COMPOUND | solubility at 24 h
CCN1C(=O)CNc2ncc(-c3ccc(-c4nnc[nH]4)nc3C)nc21 [Form A] | 0.5 mg/mL

====

# EXPERIMENT_SUMMARY: Solubility of Form A in selected aqueous and organic solvents (HPLC)
# Type: physicochemical
# CONDITION: isopropanol, organic solvent or mixture, thermodynamic from solid; read-out: Solubility (mg/mL) (room temperature)
REPORTED_ENDPOINT: solubility at 24 h (mg/mL)

COMPOUND | REPORTED_ENDPOINT | READING
CCN1C(=O)CNc2ncc(-c3ccc(-c4nnc[nH]4)nc3C)nc21 [Form A] | solubility at 24 h | 0.28

====

# EXPERIMENT_SUMMARY: Solubility of Form A in selected aqueous and organic solvents (HPLC)
# Format: physicochemical
# CONDITION: methanol, organic solvent or mixture, thermodynamic from solid; read-out: Solubility (mg/mL) (room temperature)

COMPOUND | solubility at 24 h (mg/mL)
CCN1C(=O)CNc2ncc(-c3ccc(-c4nnc[nH]4)nc3C)nc21 [Form A] | 1.13

====

# EXPERIMENT_SUMMARY: Solubility of Form A in selected aqueous and organic solvents (HPLC)
# Type: physicochemical
# CONDITION: aqueous buffer, thermodynamic from solid; Acetate buffer pH 4.0; read-out: Solubility (mg/mL) (room temperature)
REPORTED_ENDPOINT: solubility at 24 h (mg/mL)

MOLECULE | REPORTED_ENDPOINT | READING
CCN1C(=O)CNc2ncc(-c3ccc(-c4nnc[nH]4)nc3C)nc21 [Form A] | solubility at 24 h | 0.06
